Kindly state Inhibition percentage of writhing response for each of the entries shown.
- Tested on: Kunming mice
- METHOD_DESCRIPTION: Acetic acid-induced abdominal writhing test in mice
- Format: in vivo
- TEST_SETTINGS: 10 mg/kg Ig, 1 h before 0.7% acetic acid i.p.
Marks after values point to notes of the source that are not given here.

(Q) If you can, please state the reported Inhibition percentage of writhing response value of C[C@@H]([C@H](O)c1ccccc1)N1CCN(c2cccc(C(F)(F)F)c2)CC1 (racemic) [Compound I-1] .
(A) 64.38 * %

(Q) Recorded Inhibition percentage of writhing response of COc1ccc([C@@H](O)[C@H](C)N2CCN(c3ccccc3OC)CC2)cc1 (racemic) [Compound I-13] , please.
(A) 73.33 * %

(Q) So what does the record say about Inhibition percentage of writhing response for COc1ccccc1N1CCN([C@@H](C)[C@H](O)c2ccc3c(c2)CC(=O)N3)CC1 (racemic) [IV-1] ?
(A) 92.92 ** %

(Q) Can you share its Inhibition percentage of writhing response? I mean this compound: COc1ccccc1N1CCN([C@H](C)[C@H](O)c2ccccc2)CC1 [III-2]
(A) 64.05 ** %

(Q) Could you share which Inhibition percentage of writhing response value was measured for COc1ccccc1N1CCN([C@H](C)[C@@H](O)c2ccccc2)CC1 [III-1] ?
(A) 69.28 ** %

(Q) Look at this compound and give its reported Inhibition percentage of writhing response. COc1ccccc1N1CCN([C@@H](C)[C@@H](O)c2ccccc2)CC1 [II-2]
(A) 69.91 * %

(Q) State the recorded Inhibition percentage of writhing response for this entry: C[C@@H]([C@H](O)c1ccccc1)N1CCN(c2cccc(Cl)c2)CC1 (racemic) [Compound I-3]
(A) 49.61%

(Q) Give the measured Inhibition percentage of writhing response of COc1ccccc1N1CCN([C@H](C)[C@H](O)c2ccc3c(c2)CC(=O)N3)CC1 (racemic) [IV-2] .
(A) 98.23 ** %

(Q) Entry under review: COc1ccc([C@@H](O)[C@@H](C)N2CCN(c3ccccc3OC)CC2)cc1 (racemic) [Compound I-14] . Reported Inhibition percentage of writhing response?
(A) 74.55 * %
